# experimental protocol: total protein half-life in vivo (active degradation + dilution); higher = more stable protein
# assay context: E. coli NCM3722 delta-hslV; growth: N-lim chemostat; doubling time 6 h
recorded metric: total protein half-life in vivo (h)
Give just the numeric value; h need not be written.

Would you please look over these solved cases?
Find the measured total protein half-life in vivo of MSQLPGLSRETRESIAMYHLRVPQTEEELERYYQFRWEMLRKPLHQPKGSERDAWDAMAHHQMVVDEQGNLVAVGRLYINADNEASIRFMAVHPDVQDKGLGTLMAMTLESVARQEGVKRVTCSAREDAVEFFAKLGFVNQGEITTPTTTPIRHFLMIKPVATLDDILHRGDWCAQLQQAWYEHIPLSEKMGVRIQQYTGQKFITTMPETGNQNPHHTLFAGSLFSLATLTGWGLIWLMLRERHLGGTIILADAHIRYSKPISGKPHAVADLGALSGDLDRLARGRKARVQMQVEIFGDETPGAVFEGTYIVLPAKPFGPYEEGGNEEE [P0ADQ2] and report it.
5.1

Find the measured total protein half-life in vivo of "MKDVVDKCSTKGCAIDIGTVIDNDNCTSKFSRFFATREEAESFMTKLKELAAATSSADEGASVAYKIKDLEGQVELDAAFTFSCQAEMIIFELSLRSLA" and report it.
2.6

Find the measured total protein half-life in vivo of "MVKVYAPASSANMSVGFDVLGAAVTPVDGALLGDVVTVEAAETFSLNNLGRFADKLPSEPRENIVYQCWERFCQELGKQIPVAMTLEKNMPIGSGLGSSACSVVAALMAMNEHCGKPLNDTRLLALMGELEGRISGSIHYDNVAPCFLGGMQLMIEENDIISQQVPGFDEWLWVLAYPGIKVSTAEARAILPAQYRRQDCIAHGRHLAGFIHACYSRQPELAAKLMKDVIAEPYRERLLPGFRQARQAVAEIGAVASGISGSGPTLFALCDKPETAQRVADWLGKNYLQNQEGFVHICRLDTAGARVLEN" and report it.
4.29

Further cases:
Find the measured total protein half-life in vivo of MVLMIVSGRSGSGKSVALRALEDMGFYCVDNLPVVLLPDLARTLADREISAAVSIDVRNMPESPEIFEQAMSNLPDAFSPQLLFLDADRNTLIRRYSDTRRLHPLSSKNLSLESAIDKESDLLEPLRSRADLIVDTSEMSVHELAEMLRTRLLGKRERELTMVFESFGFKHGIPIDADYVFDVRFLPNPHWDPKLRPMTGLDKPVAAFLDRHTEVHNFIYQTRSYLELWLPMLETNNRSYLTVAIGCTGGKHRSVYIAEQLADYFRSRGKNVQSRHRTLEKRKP [P0A894] and report it.
4.92

Find the measured total protein half-life in vivo of MIEADRLISAGTTLPEDVADRAIRPKLLEEYVGQPQVRSQMEIFIKAAKLRGDALDHLLIFGPPGLGKTTLANIVANEMGVNLRTTSGPVLEKAGDLAAMLTNLEPHDVLFIDEIHRLSPVVEEVLYPAMEDYQLDIMIGEGPAARSIKIDLPPFTLIGATTRAGSLTSPLRDRFGIVQRLEFYQVPDLQYIVSRSARFMGLEMSDDGALEVARRARGTPRIANRLLRRVRDFAEVKHDGTISADIAAQALDMLNVDAEGFDYMDRKLLLAVIDKFFGGPVGLDNLAAAIGEERETIEDVLEPYLIQQGFLQRTPRGRMATTRAWNHFGITPPEMP [P0A812] and report it.
1.8
